# System: A673/TR/shEF
# Run Description: cell viability (LOESS-normalised, relative to median of negative controls) (log2 ratio); higher = more viable cells (less compound effect), active = hit call of the paper (over 3 MAD below the median)
# Study Conditions: 0.103 µM; library screen: screen3; EWS-FLI1 expression: high (no doxycycline); treatment time: 72 h
About 300 (9.4%) of roughly 3,200 compounds showed activity. The sample holds actives, similar compounds and a random draw of the others, so the mix is not that of the screen.
The categories you may choose from are T = active, F = inactive

Req: Given `Nc1ncnc2c1ncn2[C@@H]1O[C@H](CO)[C@@H](O)[C@@H]1O` , state the outcome it received in this test.
Resp: F

Req: Assay outcome for `COc1nc(N)nc2c1ncn2[C@@H]1O[C@H](CO)[C@@H](O)[C@@H]1O` : what was it?
Resp: F

Req: Would you mind telling me which call this test gave `COc1cccc2c1C(=O)c1c(O)c3c(c(O)c1C2=O)C[C@@](O)(C(=O)CO)C[C@@H]3O[C@H]1C[C@H](N)[C@H](O)[C@H](C)O1` ?
Resp: F

Req: I'd appreciate the recorded outcome for `CCOc1cc2ncc(C#N)c(Nc3ccc(OCc4ccccn4)c(Cl)c3)c2cc1NC(=O)/C=C/CN(C)C` from this test.
Resp: F

Req: I'd appreciate the recorded outcome for `Oc1ccc(/C=C/c2cc(O)cc(O)c2)cc1` from this test.
Resp: F

Req: Call for entry `CCCCC(=O)N(Cc1ccc(-c2ccccc2-c2nn[nH]n2)cc1)[C@H](C(=O)O)C(C)C` :
Resp: F

Req: Kindly provide the recorded test outcome for the following compound: `COCCn1c2c([n+](Cc3cnccn3)c1C)C(=O)c1ccccc1C2=O`
Resp: T

Req: In this assay, the call recorded for `CS(=O)(=O)CCNCc1ccc(-c2ccc3ncnc(Nc4ccc(OCc5cccc(F)c5)c(Cl)c4)c3c2)o1` was what?
Resp: F

Req: Record request — test call for `[Cl][Pt+2][Cl].[NH2-].[NH2-]`
Resp: F
